Tested on: 292921-168-R-J2-PDC complex spheroid growth;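 also: spheroids exposed to compounds for seven days after three days of growth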
Experiment: Anticancer human tumor 292921-168-R-J2-PDC patient-derived pancreatic carcinoma cell line growth inhibition [AhR]; active = viability on the fitted dose curve at most 10% of control; inactive = the rest
Details: second compound 3.16 µM; first compound 0.03 µM
Description: Multicellular complex tumor spheroid response to aryl hydrocarbon receptor antagonists in combination with a variety of drugs and investigational agents in selected tumor cell lines […] Compounds. […] If the clinical Cmax for an agent had not been determined, the highest concentration tested was 10 microM (Table 1). […]
Classes to choose from: active, inactive

Examples with answers:
INSERT INTO results (molecule, classification) VALUES
  ('CCc1c2c(nc3ccc(O)cc13)-c1cc3c(c(=O)n1C2)COC(=O)[C@]3(O)CC + Cc1cncc(-c2nc(NCCc3c[nH]c4ccccc34)c3ncn(C(C)C)c3n2)c1', 'inactive'),
  ('CCN(c1cc(-c2ccc(CN3CCOCC3)cc2)cc(C(=O)NCc2c(C)cc(C)[nH]c2=O)c1C)C1CCOCC1 + Cc1cncc(-c2nc(NCCc3c[nH]c4ccccc34)c3ncn(C(C)C)c3n2)c1', 'inactive'),
  ('Nc1ncn(C2CC(O)C(CO)S2)c(=O)n1 (stereo unspecified) + Cc1ccccc1N=Nc1ccc(NC(=O)c2ccnn2C)c(C)c1', 'inactive'),
  ('CCc1c2c(nc3ccc(O)cc13)-c1cc3c(c(=O)n1C2)COC(=O)[C@]3(O)CC + Cc1ccccc1N=Nc1ccc(NC(=O)c2ccnn2C)c(C)c1', 'active');

INPUT: Check the results log: what was the call for Nc1ncn(C2CC(O)C(CO)S2)c(=O)n1 (stereo unspecified) + CC(CO)NC(=O)c1cc(-c2ccc(Cl)cc2)nn(-c2cnn(C)c2)c1=O ?
OUTPUT: inactive

INPUT: Check the results log: what was the call for O=C(C=Cn1cnc(-c2cc(C(F)(F)F)cc(C(F)(F)F)c2)n1)NNc1cnccn1 + Cc1ccccc1N=Nc1ccc(NC(=O)c2ccnn2C)c(C)c1 ?
OUTPUT: inactive
